The measured values listed here are drawn from patent US20240294541A1.

System: MV-4-11 (human biphenotypic leukaemia)
TEST NAME: In vitro cytotoxicity, MTT assay, MV-4-11
Assay type: cell-based
EXPERIMENTAL ENDPOINT: SI MV4-11
Could you respond with only the numeric value?

[[record]]
smiles_repr = "CC[C@@H](C(=O)[C@@H](C)[C@@H](O)[C@H](C)[C@@H]1O[C@@H]([C@@H](CC)C(=O)O)CC[C@@H]1C)[C@H]1O[C@]2(C=C[C@@H](NC(=O)OCCOc3ccccc3)[C@]3(CC[C@@](C)([C@H]4CC[C@](O)(CC)[C@H](C)O4)O3)O2)[C@H](C)C[C@@H]1C"
experimental_value = 50.0


For the next question, use this compound.
So what's the measured SI MV4-11 for this one? CC[C@@H](C(=O)[C@@H](C)[C@@H](O)[C@H](C)[C@@H]1O[C@@H]([C@@H](CC)C(=O)O)CC[C@@H]1C)[C@H]1O[C@]2(C=C[C@@H](NC(=O)OCC(F)F)[C@]3(CC[C@@](C)([C@H]4CC[C@](O)(CC)[C@H](C)O4)O3)O2)[C@H](C)C[C@@H]1C
298.7

----------
System: SNU-16 (human gastric cancer)
TEST NAME: cells
Assay type: cell-based
CONDITION SUMMARY: Table 4; SNU-16 human gastric cancer cells; read-out: IC50 (nM) SNU-16
EXPERIMENTAL ENDPOINT: IC50 (nM)
Reply with just the number (in nM).

[[record]]
smiles_repr = "CC[C@@H](C(=O)[C@@H](C)[C@@H](O)[C@H](C)[C@@H]1O[C@@H]([C@@H](CC)C(=O)O)CC[C@@H]1C)[C@H]1O[C@]2(C=C[C@@H](NC(N)=O)[C@]3(CC[C@@](C)([C@H]4CC[C@](O)(CC)[C@H](C)O4)O3)O2)[C@H](C)C[C@@H]1C"
experimental_value = 1330


So what's the measured IC50 for this one? CC[C@@H](C(=O)[C@@H](C)[C@@H](O)[C@H](C)[C@@H]1O[C@@H]([C@@H](CC)C(=O)O)CC[C@@H]1C)[C@H]1O[C@]2(C=C[C@@H](NC(=O)OCCOCc3ccccc3)[C@]3(CC[C@@](C)([C@H]4CC[C@](O)(CC)[C@H](C)O4)O3)O2)[C@H](C)C[C@@H]1C
126

----------
Tested on: MV-4-11 (human biphenotypic leukaemia)
TEST NAME: In vitro cytotoxicity, MTT assay, MV-4-11
Type: cell-based
Quick rule for you: SI MV4-11 at 30 or higher means Criterion met, lower means Criterion not met.

Here are 2 compounds together with their reported answers.
[[record]]
compound = "CC[C@@H](C(=O)[C@@H](C)[C@@H](O)[C@H](C)[C@@H]1O[C@@H]([C@@H](CC)C(=O)O)CC[C@@H]1C)[C@H]1O[C@]2(C=C[C@@H](NC(N)=O)[C@]3(CC[C@@](C)([C@H]4CC[C@](O)(CC)[C@H](C)O4)O3)O2)[C@H](C)C[C@@H]1C [FLC-00391-1]"
group_label = "Criterion not met"

[[record]]
compound = "CC[C@@H](C(=O)[C@@H](C)[C@@H](O)[C@H](C)[C@@H]1O[C@@H]([C@@H](CC)C(=O)O)CC[C@@H]1C)[C@H]1O[C@]2(C=C[C@@H](NC(=O)C(=O)NCc3ccccc3OC)[C@]3(CC[C@@](C)([C@H]4CC[C@](O)(CC)[C@H](C)O4)O3)O2)[C@H](C)C[C@@H]1C [FLC-00491-1•Na]"
group_label = "Criterion met"


Would you say CC[C@@H](C(=O)[C@@H](C)[C@@H](O)[C@H](C)[C@@H]1O[C@@H]([C@@H](CC)C(=O)O)CC[C@@H]1C)[C@H]1O[C@]2(C=C[C@@H](NC(=O)CBr)[C@]3(CC[C@@](C)([C@H]4CC[C@](O)(CC)[C@H](C)O4)O3)O2)[C@H](C)C[C@@H]1C [FLC-00501-1•Na, C20-aminosalinomycin 2-bromoacetamide] shows SI MV4-11 at minimum 30?
Criterion not met

Next entry: CC[C@@H](C(=O)[C@@H](C)[C@@H](O)[C@H](C)[C@@H]1O[C@@H]([C@@H](CC)C(=O)O)CC[C@@H]1C)[C@H]1O[C@]2(C=C[C@@H](NC(=O)OCCc3scnc3C)[C@]3(CC[C@@](C)([C@H]4CC[C@](O)(CC)[C@H](C)O4)O3)O2)[C@H](C)C[C@@H]1C [FLC-00547-1•Na]
Criterion met

Next entry: CC[C@@H](C(=O)[C@@H](C)[C@@H](O)[C@H](C)[C@@H]1O[C@@H]([C@@H](CC)C(=O)O)CC[C@@H]1C)[C@H]1O[C@]2(C=C[C@@H](NC(=O)C(=O)NCC3CC3)[C@]3(CC[C@@](C)([C@H]4CC[C@](O)(CC)[C@H](C)O4)O3)O2)[C@H](C)C[C@@H]1C [FLC-00442-1•Na]
Criterion met

Next entry: CC[C@@H](C(=O)[C@@H](C)[C@@H](O)[C@H](C)[C@@H]1O[C@@H]([C@@H](CC)C(=O)O)CC[C@@H]1C)[C@H]1O[C@]2(C=C[C@@H](NC(=O)c3cccc(C(F)(F)F)c3)[C@]3(CC[C@@](C)([C@H]4CC[C@](O)(CC)[C@H](C)O4)O3)O2)[C@H](C)C[C@@H]1C [FLC-00579-1•Na]
Criterion not met

Next entry: CC[C@@H](C(=O)[C@@H](C)[C@@H](O)[C@H](C)[C@@H]1O[C@@H]([C@@H](CC)C(=O)O)CC[C@@H]1C)[C@H]1O[C@]2(C=C[C@@H](NC(=O)C(=O)NCCCc3ccccc3)[C@]3(CC[C@@](C)([C@H]4CC[C@](O)(CC)[C@H](C)O4)O3)O2)[C@H](C)C[C@@H]1C [FLC-00458-1•Na]
Criterion met

----------
System: NCI-H23 (human lung cancer)
TEST NAME: In vitro cytotoxicity, SRB assay, NCI-H23
Assay type: cell-based
CONDITION SUMMARY: Homo sapiens, NCI-H23; 72 h with compound, SRB; n/a = non-active compound; read-out: NCI-H23 IC50
EXPERIMENTAL ENDPOINT: pIC50
Interpret pIC50 as the negative base-10 log of the concentration measured in mol/L.

Consider the following illustrative entries.
[[record]]
compound = "CC[C@@H](C(=O)[C@@H](C)[C@@H](O)[C@H](C)[C@@H]1O[C@@H]([C@@H](CC)C(=O)O)CC[C@@H]1C)[C@H]1O[C@]2(C=C[C@@H](NC(=O)Nc3ccc(F)cc3)[C@]3(CC[C@@](C)([C@H]4CC[C@](O)(CC)[C@H](C)O4)O3)O2)[C@H](C)C[C@@H]1C [FLC-00363-1]"
tested_system = "NCI-H23 (human lung cancer)"
experimental_value = 8.56

[[record]]
compound = "CCOC(=O)CNC(=S)N[C@@H]1C=C[C@]2(O[C@H]([C@@H](CC)C(=O)[C@@H](C)[C@@H](O)[C@H](C)[C@@H]3O[C@@H]([C@@H](CC)C(=O)O)CC[C@@H]3C)[C@@H](C)C[C@H]2C)O[C@@]12CC[C@@](C)([C@H]1CC[C@](O)(CC)[C@H](C)O1)O2 [FLC-00352-1]"
tested_system = "NCI-H23 (human lung cancer)"
experimental_value = 6.63

[[record]]
compound = "CC[C@@H](C(=O)[C@@H](C)[C@@H](O)[C@H](C)[C@@H]1O[C@@H]([C@@H](CC)C(=O)O)CC[C@@H]1C)[C@H]1O[C@]2(C=C[C@@H](NC(=O)NCCCl)[C@]3(CC[C@@](C)([C@H]4CC[C@](O)(CC)[C@H](C)O4)O3)O2)[C@H](C)C[C@@H]1C [FLC-00338-1 Na]"
tested_system = "NCI-H23 (human lung cancer)"
experimental_value = 6.21


For the next question, use this compound.
So what's the measured pIC50 for this one? CC[C@@H](C(=O)[C@@H](C)[C@@H](O)[C@H](C)[C@@H]1O[C@@H]([C@@H](CC)C(=O)O)CC[C@@H]1C)[C@H]1O[C@]2(C=C[C@@H](NC(=S)NC3CCCCC3)[C@]3(CC[C@@](C)([C@H]4CC[C@](O)(CC)[C@H](C)O4)O3)O2)[C@H](C)C[C@@H]1C [FLC-00377-1]
8.24

----------
This section presents compounds with their documented IC50 values.
Test system: MIA PaCa-2 (human pancreatic cancer)
TEST NAME: cells
Type: cell-based
CONDITION SUMMARY: Table 4; MIA PaCa-2 human pancreatic cancer cells; read-out: IC50 (nM) MIA PaCa-2
Reply with just the number (in nM).

Consider the following illustrative entries.
[[record]]
compound = "CC[C@@H](C(=O)[C@@H](C)[C@@H](O)[C@H](C)[C@@H]1O[C@@H]([C@@H](CC)C(=O)O)CC[C@@H]1C)[C@H]1O[C@]2(C=C[C@@H](NC(=O)OCCF)[C@]3(CC[C@@](C)([C@H]4CC[C@](O)(CC)[C@H](C)O4)O3)O2)[C@H](C)C[C@@H]1C [FLC-00437-1•Na]"
units = "nM"
experimental_value = 45.7

[[record]]
compound = "CC[C@@H](C(=O)[C@@H](C)[C@@H](O)[C@H](C)[C@@H]1O[C@@H]([C@@H](CC)C(=O)O)CC[C@@H]1C)[C@H]1O[C@]2(C=C[C@@H](NC(=O)Nc3c(F)c(F)c(F)c(F)c3F)[C@]3(CC[C@@](C)([C@H]4CC[C@](O)(CC)[C@H](C)O4)O3)O2)[C@H](C)C[C@@H]1C [FLC-00428-1•Na]"
units = "nM"
experimental_value = 36.9


For the next question, use this compound.
So what's the measured IC50 for this one? CC[C@@H](C(=O)[C@@H](C)[C@@H](O)[C@H](C)[C@@H]1O[C@@H]([C@@H](CC)C(=O)O)CC[C@@H]1C)[C@H]1O[C@]2(C=C[C@@H](NC(=O)OCCOCCCl)[C@]3(CC[C@@](C)([C@H]4CC[C@](O)(CC)[C@H](C)O4)O3)O2)[C@H](C)C[C@@H]1C [FLC-00454-1•Na]
45.2
